Measured values drawn from patent US8263656B2 for this set.

- subject.of.test: human CRTH2 (Homo sapiens)
- Sequence (Q9Y5Y4 1-395): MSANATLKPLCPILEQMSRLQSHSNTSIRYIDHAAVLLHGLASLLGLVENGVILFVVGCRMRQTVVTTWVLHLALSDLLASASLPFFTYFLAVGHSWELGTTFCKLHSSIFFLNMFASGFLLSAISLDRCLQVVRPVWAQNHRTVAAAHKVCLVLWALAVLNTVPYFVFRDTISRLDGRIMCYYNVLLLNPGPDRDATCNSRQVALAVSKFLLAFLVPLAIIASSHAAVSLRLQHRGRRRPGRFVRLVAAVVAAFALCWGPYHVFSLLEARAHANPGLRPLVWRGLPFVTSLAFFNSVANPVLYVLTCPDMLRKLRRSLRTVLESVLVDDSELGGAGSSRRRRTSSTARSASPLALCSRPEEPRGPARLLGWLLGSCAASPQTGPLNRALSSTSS
- assay.protocol: Human CRTH2 Receptor Binding Assay (whole cell, [3H]ramatroban competition)
- recorded.conditions: CHO-K1 cells expressing human CRTH2 and G-alpha16; 20 nM [3H]ramatroban; 1 hour, room temperature
pIC50: −log10 of the molar value.
Decision: pIC50 >= 8 yields YES, all other cases yield NO.

compound: O=C(O)COc1cc(Cl)cc2c1CCC[C@H]2NS(=O)(=O)c1ccc(Cl)cc1Cl
subject.of.test: human CRTH2 (Homo sapiens)
class: YES
--
compound: O=C(O)COc1c(F)c(F)cc2c1CCCC2NS(=O)(=O)c1ccc(Cl)cc1Cl (stereo not drawn)
subject.of.test: human CRTH2 (Homo sapiens)
class: NO
--
compound: CN(C1CCCc2c(OCC(=O)O)cc(F)cc21)S(=O)(=O)c1cc(F)cc(C(F)(F)F)c1 (stereo not drawn)
subject.of.test: human CRTH2 (Homo sapiens)
class: NO
--
compound: O=C(O)COc1c(Cl)ccc2c1CCCC2NS(=O)(=O)c1cc(C(F)(F)F)cc(C(F)(F)F)c1 (stereo not drawn)
subject.of.test: human CRTH2 (Homo sapiens)
class: NO
--
compound: CC(C)c1ccc2c(c1OCC(=O)O)CCCC2NS(=O)(=O)c1cc(C(F)(F)F)cc(C(F)(F)F)c1 (stereo not drawn)
subject.of.test: human CRTH2 (Homo sapiens)
class: NO
--
compound: O=C(O)COc1cc(F)cc2c1CCCC2NS(=O)(=O)c1cc(F)cc(C(F)(F)F)c1 (stereo not drawn)
subject.of.test: human CRTH2 (Homo sapiens)
class: NO
--
compound: O=C(O)COc1cc(F)cc2c1CCCC2NS(=O)(=O)c1ccc(Cl)cc1Cl (stereo not drawn)
subject.of.test: human CRTH2 (Homo sapiens)
class: NO
--
compound: O=C(O)COc1cc(Cl)cc2c1CCC[C@H]2NS(=O)(=O)c1cc(C(F)(F)F)cc(C(F)(F)F)c1
subject.of.test: human CRTH2 (Homo sapiens)
class: YES
--
compound: O=C(O)COc1c(F)c(Cl)cc2c1CCCC2NS(=O)(=O)c1cc(F)cc(C(F)(F)F)c1 (stereo not drawn)
subject.of.test: human CRTH2 (Homo sapiens)
class: YES
--
compound: CN(C1CCCc2c1cc(F)c(F)c2OCC(=O)O)S(=O)(=O)c1ccc(Cl)cc1Cl (stereo not drawn)
subject.of.test: human CRTH2 (Homo sapiens)
class: NO
--
compound: O=C(O)COc1cc(Cl)cc2c1CCCC2NS(=O)(=O)c1ccc(Cl)cc1Cl (stereo not drawn)
subject.of.test: human CRTH2 (Homo sapiens)
class: YES
--
compound: CN(C1CCCc2c1cc(Cl)c(F)c2OCC(=O)O)S(=O)(=O)c1cc(Cl)ccc1Cl (stereo not drawn)
subject.of.test: human CRTH2 (Homo sapiens)
class: NO
--
compound: CN(C1CCCc2c(OCC(=O)O)cc(Cl)cc21)S(=O)(=O)c1cc(Cl)ccc1Cl (stereo not drawn)
subject.of.test: human CRTH2 (Homo sapiens)
class: NO
--
compound: O=C(O)COc1c(F)c(Cl)cc2c1CCC[C@H]2NS(=O)(=O)c1cc(C(F)(F)F)cc(C(F)(F)F)c1
subject.of.test: human CRTH2 (Homo sapiens)
class: YES
--
compound: O=C(O)COc1cc(Cl)cc2c1CCC[C@H]2NS(=O)(=O)c1cc(Br)cc(C(F)(F)F)c1
subject.of.test: human CRTH2 (Homo sapiens)
class: YES
--
compound: O=C(O)COc1c(F)ccc2c1CCCC2NS(=O)(=O)c1cc(C(F)(F)F)cc(C(F)(F)F)c1 (stereo not drawn)
subject.of.test: human CRTH2 (Homo sapiens)
class: NO
--
compound: Cc1c(Cl)cc2c(c1OCC(=O)O)CCCC2N(C)S(=O)(=O)c1cc(C(F)(F)F)cc(C(F)(F)F)c1 (stereo not drawn)
subject.of.test: human CRTH2 (Homo sapiens)
class: NO
--
compound: CN(C1CCCc2c1cc(F)c(F)c2OCC(=O)O)S(=O)(=O)c1cc(F)cc(C(F)(F)F)c1 (stereo not drawn)
subject.of.test: human CRTH2 (Homo sapiens)
class: NO
--
compound: O=C(O)COc1cc(F)cc2c1CCCC2NS(=O)(=O)c1cc(Br)cc(C(F)(F)F)c1 (stereo not drawn)
subject.of.test: human CRTH2 (Homo sapiens)
class: YES
--
compound: CN(C1CCCc2c1cc(Cl)c(F)c2OCC(=O)O)S(=O)(=O)c1ccc(Cl)cc1Cl (stereo not drawn)
subject.of.test: human CRTH2 (Homo sapiens)
class: NO
--
compound: O=C(O)COc1c(Cl)ccc2c1CCC[C@H]2NS(=O)(=O)c1cc(C(F)(F)F)cc(C(F)(F)F)c1
subject.of.test: human CRTH2 (Homo sapiens)
class: NO
--
compound: O=C(O)COc1c(F)c(Cl)cc2c1CCCC2NS(=O)(=O)c1cc(C(F)(F)F)cc(C(F)(F)F)c1 (stereo not drawn)
subject.of.test: human CRTH2 (Homo sapiens)
class: YES
--
compound: O=C(O)COc1c(F)c(Cl)cc2c1CCC[C@H]2NS(=O)(=O)c1cc(F)cc(C(F)(F)F)c1
subject.of.test: human CRTH2 (Homo sapiens)
class: YES
